- Test system: MM1S (Plasma Cell Myeloma);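 further: after 72 h of two-drug dosing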
- assay_remarks: Bliss excess, mean over the matrix (fraction); higher = more synergy
Kindly state Bliss excess for each of the entries shown.
# respond with the number and nothing more

Please tell me the measured Bliss excess for CCN(CCO)CCCOc1ccc2c(Nc3cc(CC(=O)Nc4cccc(F)c4)[nH]n3)ncnc2c1 [AZD2811] + C[C@@H]1COCCN1C2=NC(=NC(=C2)C3(CC3)[S@](=N)(=O)C)C4=C5C=CNC5=NC=C4 [AZD6738] (first compound max 1 µM, 7x7, partner max 10 µM) ; system: MM1S (Plasma Cell Myeloma).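 Further: after 72 h of two-drug dosing.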
0.0151

Please tell me the measured Bliss excess for COc1nnc2ccc(N3CCC(c4ccc(OCCN5CCN(C)C(=O)[C@H]5C)cc4)CC3)nn12 [AZD5153] + CCN(CCO)CCCOc1ccc2c(Nc3cc(CC(=O)Nc4cccc(F)c4)[nH]n3)ncnc2c1 [AZD2811] (first compound max 1 µM, 7x7, partner max 1 µM) ; system: MM1S (Plasma Cell Myeloma).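 Further: after 72 h of two-drug dosing.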
0.106

Please tell me the measured Bliss excess for Cc1c2c(nn1C)CSCc1cc(n(C)n1)CSc1cc(c3ccccc3c1)OCCCc1c(C(=O)O)n(C)c3c-2c(Cl)ccc13 [AZD5991] + Cn1cnc2c(F)c(Nc3ccc(Br)cc3Cl)c(C(=O)NOCCO)cc21 [Selumetinib] (first compound max 1 µM, 7x7, partner max 3 µM) ; system: MM1S (Plasma Cell Myeloma).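 Further: after 72 h of two-drug dosing.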
0.0828

Please tell me the measured Bliss excess for CC(=O)Nc1cccc(-n2c(=O)n(C3CC3)c(=O)c3c(Nc4ccc(I)cc4F)n(C)c(=O)c(C)c32)c1 [Trametinib] + Cc1nc(-c2cn3c(n2)-c2ccc(-c4cnn(C(C)(C)C(N)=O)c4)cc2OCC3)n(C(C)C)n1 [Taselisib] (first compound max 1 µM, 7x7, partner max 10 µM) ; system: MM1S (Plasma Cell Myeloma).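 Further: after 72 h of two-drug dosing.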
0.119

Please tell me the measured Bliss excess for CN(CCO)CC[C@H](CSc1ccccc1)Nc1ccc(S(=O)(=O)NC(=O)c2ccc(N3CCC([C@@H](O)c4ccccc4-c4ccc(Cl)cc4)CC3)cc2)cc1S(=O)(=O)C(F)(F)F [AZD4320] + Cc1cc2ncnn2cc1Nc1ncc2c(n1)n(C1CCOCC1)c(=O)n2C [AZD7648] (first compound max 1 µM, 7x7, partner max 10 µM) ; system: MM1S (Plasma Cell Myeloma).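 Further: after 72 h of two-drug dosing.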
0.0657

Please tell me the measured Bliss excess for CC1(C)CCC(CN2CCN(c3ccc(C(=O)NS(=O)(=O)c4ccc(NCC5CCOCC5)c([N+](=O)[O-])c4)c(Oc4cnc5[nH]ccc5c4)c3)CC2)=C(c2ccc(Cl)cc2)C1 [Venetoclax] + Cc1cc2ncnn2cc1Nc1ncc2c(n1)n(C1CCOCC1)c(=O)n2C [AZD7648] (first compound max 1 µM, 7x7, partner max 10 µM) ; system: MM1S (Plasma Cell Myeloma).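 Further: after 72 h of two-drug dosing.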
0.0556

Please tell me the measured Bliss excess for COc1nnc2ccc(N3CCC(c4ccc(OCCN5CCN(C)C(=O)[C@H]5C)cc4)CC3)nn12 [AZD5153] + CN(CC[C@H](CSC1=CC=CC=C1)NC2=C(C=C(C=C2)S(=O)(=O)NC(=O)C3=CC=C(C=C3)N4CCC(CC4)[C@H](C5=CC=CC=C5C6=CC=C(C=C6)Cl)O)S(=O)(=O)C(F)(F)F)CCO [AZD4320] (first compound max 1 µM, 7x7, partner max 1 µM) ; system: MM1S (Plasma Cell Myeloma).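 Further: after 72 h of two-drug dosing.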
0.0694
